Kindly find below pIC50 information for Poly [ADP-ribose] polymerase tankyrase-2 (Homo sapiens) taken from the literature.
Formally, pIC50 is defined as -log10 of the concentration c, with c in mol/L.

// query Look up pIC50 for this molecule: C=CCCn1ccc2c(=O)[nH]c(N3CCN(c4ccccc4Cl)CC3)nc21
// result 5.17

// query Look up pIC50 for this molecule: Cn1ncc2c(=O)[nH]c(-c3ccc(C(F)(F)F)cn3)nc21
// result 6.49

// query Look up pIC50 for this molecule: O=C(N[C@H]1CC[C@@]2(CCN(c3ccc(F)cc3Cl)C2=O)CC1)c1cnn2ccc(O)nc12
// result 6.68

// query Look up pIC50 for this molecule: Cc1cc(NC(=O)[C@H]2CC[C@H](NC(=O)c3cnn4cccnc34)CC2)c(Cl)cc1F
// result 7.46
